- targetDesc: chicken gizzard smooth muscle myosin subfragment-1 chemically crosslinked to cardiac or skeletal actin (Gallus gallus)
pIC50: −log10 of the molar value.
property: pIC50

N#Cc1ccccc1-c1ccc(C(=O)NCC2CC2)c(NCCc2cccc(F)c2)n1	6.87
N#Cc1ccccc1-c1ccc(C(=O)NC[C@H](N)CO)c(NCCc2cccc(F)c2)n1	5.80
COC(=O)[C@@H](C)NC(=O)c1ccc(-c2ccccc2C#N)nc1NCCc1cccc(F)c1	6.13
COC(=O)[C@H](CN)NC(=O)c1ccc(-c2ccccc2C#N)nc1NCCc1cccc(F)c1	5.63
C[C@H](CNC(=O)c1cc(F)c(-c2cnn(C)c2)nc1NCCc1cccc(F)c1)NCCO	6.19
C[C@@H](CNC(=O)CO)CNC(=O)c1cc(F)c(-c2cnn(C)c2)nc1NCCc1cccc(F)c1	6.98
CC(O)[C@H](C)CNC(=O)c1cc(F)c(-c2cnn(C)c2)nc1NCCc1cccc(F)c1 (stereo partly shown)	6.55
Cn1cc(-c2ccc(C(=O)NCC3CCNC3=O)c(NCCc3cccc(F)c3)n2)cn1 (stereo not shown)	6.61

A. C[C@@H](N)C(=O)N1CCCC[C@@H]1CNC(=O)c1ccc(-c2ccccc2C#N)nc1NCCc1cccc(F)c1
B. N#Cc1ccccc1-c1ccc(C(=O)NCC(=O)NCCC(N)=O)c(NCCc2cccc(F)c2)n1
Higher pIC50 between A and B ? Please identify the chosen entry by its label.
A

###

- targetDesc: chicken gizzard smooth muscle myosin subfragment-1 chemically crosslinked to cardiac or skeletal actin (Gallus gallus, UniProt P10587)
property: IC50 (nM)

Solved entries (count: 2):
N#Cc1ccccc1-c1ccc(C(=O)NCc2cccc(CO)n2)c(NCCc2cccc(F)c2)n1	37
N[C@@H](CO)CNC(=O)c1cc(F)c(-c2cn[nH]c2)nc1NCCc1cccc(F)c1	1820

a. N#Cc1ccccc1-c1ccc(C(=O)N[C@H]2CCCN(CCN)C2=O)c(NCCc2cccc(F)c2)n1 (stereo in doubt)
b. Cn1cc(-c2nc(NCCc3cccc(F)c3)c(C(=O)NC[C@H]3CCN3C(=O)CO)cc2F)cn1
Compare a and b and name the one whose reported IC50 is smaller. Please identify the chosen entry by its label.
b

A. Cn1cc(-c2nc(NCCc3cccc(F)c3)c(C(=O)NC[C@H]3CCCN3)cc2C#N)cn1
B. NCc1ncccc1CNC(=O)c1ccc(-c2cnn(CCO)c2)nc1NCCc1cccc(F)c1
Higher IC50 between A and B ? Please identify the chosen entry by its label.
B
(B: 707 nM, A: 281 nM)

###

- targetDesc: chicken gizzard smooth muscle myosin subfragment-1 chemically crosslinked to cardiac or skeletal actin (Gallus gallus, UniProt P10587)
property: IC50 (nM)

Solved entries (count: 5):
N#Cc1ccccc1-c1ccc(C(=O)NCCCN)c(NCCc2cccc(F)c2)n1	994
N#Cc1ccccc1-c1ccc(C(=O)NC[C@H]2CCCN2C(=O)CCCN)c(NCCc2cccc(F)c2)n1	29
Cc1cscc1-c1ccc(C(=O)NCc2cccnc2)c(NCCc2ccccn2)n1	4060
CC(=O)N1CC(=O)N[C@@H](CNC(=O)c2ccc(-c3ccccc3C#N)nc2NCCc2cccc(F)c2)C1 (stereo in doubt)	1630
CS(=O)(=O)NC(=O)CNC(=O)c1ccc(-c2ccccc2C#N)nc1NCCc1cccc(F)c1	24900

1. CC(=O)N1CCC[C@@H](CNC(=O)c2ccc(-c3ccccc3C#N)nc2NCCc2cccc(F)c2)C1
2. COc1ncccc1CNC(=O)c1ccc(-c2ccccc2C#N)nc1NCCc1cccc(F)c1
3. N#Cc1ccccc1-c1ccc(C(=O)NC[C@H]2CCCN2C(=O)CCCN)c(NCCC2CCCCO2)n1 (stereo partly shown)
Put the items in order so that reported IC50 rises from first to last. Give the labels in the order requested.
2, 3, 1

a. COc1ccccc1-c1ccc(C(=O)NCc2cccnc2)c(NCCc2ccccn2)n1
b. COC(=O)[C@H](C)CNC(=O)c1cc(F)c(-c2cnn(C)c2)nc1NCCc1cccc(F)c1
c. COC(=O)[C@H](N)CNC(=O)c1ccc(-c2ccccc2C#N)nc1NCCc1cccc(F)c1
d. Cc1cccc(-c2ccc(C(=O)NCc3cccnc3)c(NCCc3ccccn3)n2)c1C
Put the items in order so that reported IC50 rises from first to last. Give the labels in the order requested.
b, c, d, a

I. Cn1cc(-c2nc(NCCc3cccc(F)c3)c(C(=O)NC[C@H]3CCC(=O)N3CCCN)cc2C#N)cn1
II. NCc1ccc(-c2ccccc2)nc1NCCc1cccc(F)c1
Compare I and II and name the one whose reported IC50 is smaller. Please identify the chosen entry by its label.
I
(I: 310 nM, II: 39500 nM)

A. Cc1ccc(-c2ccc(C(=O)NCc3cccnc3)c(NCCc3ccccn3)n2)cc1C
B. O=C(NCc1cccs1)c1ccc(-c2ccccc2)nc1NCCc1ccccn1
Compare A and B and name the one whose reported IC50 is smaller. Please identify the chosen entry by its label.
B

###

- targetDesc: chicken gizzard smooth muscle myosin subfragment-1 chemically crosslinked to cardiac or skeletal actin (Gallus gallus)
pIC50: −log10 of the molar value.
property: pIC50

P. N#Cc1ccccc1-c1ccc(C(=O)NCc2cccnc2)c(NCCc2ccccc2Cl)n1
Q. Cc1cc(C(=O)NCc2cccnc2CNC(=O)OC(C)(C)C)c(NCCc2cccc(F)c2)nc1-c1ccccc1C#N
Compare P and Q and name the one whose reported pIC50 is smaller. Please identify the chosen entry by its label.
Q

a. N#Cc1ccccc1-c1ccc(C(=O)NCC2CCCCCN2C(=O)CCN)c(NCCc2cccc(F)c2)n1 (stereo not drawn)
b. N#Cc1ccccc1-c1ccc(C(=O)NCc2ccncc2CN)c(NCCc2cccc(F)c2)n1
c. O=C(NCc1cccnc1)c1ccc(-c2ccccc2)nc1NCc1ccccc1
d. C[C@H](CNC(=O)c1ccc(-c2ccccc2C#N)nc1NCCc1cccc(F)c1)N(C)S(C)(=O)=O
Please rank these compounds by pIC50 in descending order. Give the labels in the order requested.
b, a, c, d
(b: 7.25, a: 6.59, c: 5.55, d: 5.15)

A. O=C(O)c1cccc(CCNc2nc(-c3ccccc3)ccc2C(=O)NCc2cccnc2)c1
B. O=C(NCc1cccnc1)c1ccc(-c2ccccc2)nc1NCCc1cccc(F)c1
C. O=C(NCc1cccnc1)c1ccc(-c2ccccc2)nc1NCCc1ccccn1
D. N#Cc1ccccc1-c1ccc(C(=O)NCCOCCN)c(NCCc2cccc(F)c2)n1
Please rank these compounds by pIC50 in descending order. Give the labels in the order requested.
B, C, D, A
(B: 7.20, C: 6.29, D: 5.79, A: 4.66)

###

- targetDesc: chicken gizzard smooth muscle myosin subfragment-1 chemically crosslinked to cardiac or skeletal actin (Gallus gallus, UniProt P10587)
pIC50: −log10 of the molar value.
property: pIC50

Solved entries (count: 2):
Cn1cc(-c2nc(NCCc3cccc(F)c3)c(C(=O)NC[C@@H](N)CO)cc2F)cn1	5.90
C[C@@H](N)CNC(=O)c1cc(F)c(-c2cnn(C)c2)nc1NCCc1cccc(F)c1	6.40

A. N#Cc1ccccc1-c1ccc(C(=O)NCCN2C(=O)CC[C@@H]2CN)c(NCCc2cccc(F)c2)n1
B. Cn1cc(-c2nc(NCCc3cccc(F)c3)c(C(=O)NCC3COC(C)(C)OC3)cc2F)cn1
Higher pIC50 between A and B ? Please identify the chosen entry by its label.
B
(B: 5.65, A: 4.71)

P. Cn1cc(-c2nc(NCCc3cccc(F)c3)c(C(=O)NCc3cccnc3CNC(=O)OC(C)(C)C)cc2Cl)cn1
Q. N#Cc1ccccc1-c1ccc(C(=O)NCc2cccnc2)c(NCCc2cccc(F)c2F)n1
R. O=C(NCc1cccnc1)c1ccc(-c2cccnc2)nc1NCCc1ccccn1
S. O=C(NCc1cccnc1)c1ccc(-c2cccc(O)c2)nc1NCCc1ccccn1
Please rank these compounds by pIC50 in descending order. Give the labels in the order requested.
Q, P, S, R
(Q: 7.66, P: 6.38, S: 6.10, R: 4.72)

###

- targetDesc: chicken gizzard smooth muscle myosin subfragment-1 chemically crosslinked to cardiac or skeletal actin (Gallus gallus, UniProt P10587)
pIC50: −log10 of the molar value.
property: pIC50

Solved entries (count: 4):
CC(=O)N1CCCC[C@@H]1CNC(=O)c1ccc(-c2ccccc2C#N)nc1NCCc1cccc(F)c1	5.57
N#Cc1ccccc1-c1ccc(C(=O)NCC2CCN(C(=O)CN)CC2)c(NCCc2cccc(F)c2)n1	6.24
N#Cc1ccc(CNC(=O)c2ccc(-c3ccccc3)nc2NCCc2cccc(F)c2)cn1	5.90
O=C(NCC(O)CO)c1cc(F)c(-c2cn[nH]c2)nc1NCCc1cccc(F)c1 (centres unmarked)	6.35

A. CNC(=O)[C@@H](CN)NC(=O)c1ccc(-c2ccccc2C#N)nc1NCCc1cccc(F)c1
B. NCc1ncccc1CNC(=O)c1cc(F)c(-c2ccccn2)nc1NCCc1cccc(F)c1
Compare A and B and name the one whose reported pIC50 is smaller. Please identify the chosen entry by its label.
A
(A: 6.56, B: 7.18)

###

- targetDesc: chicken gizzard smooth muscle myosin subfragment-1 chemically crosslinked to cardiac or skeletal actin (Gallus gallus, UniProt P10587)
pIC50: −log10 of the molar value.
property: pIC50

Solved entries (count: 4):
CC(C)(C)OC(=O)NCCCN1CCCC1CNC(=O)c1ccc(-c2ccccc2C#N)nc1NCCc1cccc(F)c1 (stereo not shown)	5.68
CC(C)(C)OC(=O)NCCCCC(=O)N1CCC[C@@H]1CNC(=O)c1ccc(-c2ccccc2C#N)nc1NCCc1cccc(F)c1	5.53
N#Cc1ccccc1-c1ccc(C(=O)NC[C@H]2CCCN2CCCN)c(NCCc2cccc(F)c2)n1	5.86
CNC(=O)CNC(=O)c1ccc(-c2cnn(C)c2)nc1NCCc1cccc(F)c1	6.46

a. CC(C)[C@H](CNC(=O)c1ccc(-c2ccccc2C#N)nc1NCCc1cccc(F)c1)NC(=O)CO
b. CS(=O)(=O)N1CCCC[C@H]1CNC(=O)c1ccc(-c2ccccc2C#N)nc1NCCc1cccc(F)c1
c. N[C@@H](CO)C(=O)N1CCC[C@@H]1CNC(=O)c1cc(F)c(-c2cn[nH]c2)nc1NCCc1cccc(F)c1
Please rank these compounds by pIC50 in descending order. Give the labels in the order requested.
c, a, b
(c: 7.23, a: 6.36, b: 5.79)

Data provenance is patent US7932270B2.
